src = patent US20200024330A1

target: HIV-1 Env of isolate CAP45 (HIV-1); assay: cell-based or functional assay
Observation Type: IC50, pseudovirus neutralization (TZM-bl)

Binder	Result
1456_A12 (PG16) (TCN-117) (antibody, V domains shown) VH: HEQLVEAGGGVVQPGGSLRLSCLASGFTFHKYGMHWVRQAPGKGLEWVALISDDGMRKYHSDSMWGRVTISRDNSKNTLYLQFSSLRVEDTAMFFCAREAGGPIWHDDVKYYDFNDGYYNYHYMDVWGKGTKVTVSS VL: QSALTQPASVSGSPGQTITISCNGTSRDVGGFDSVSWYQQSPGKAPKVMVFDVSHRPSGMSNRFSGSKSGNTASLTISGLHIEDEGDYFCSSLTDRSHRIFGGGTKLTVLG	< 0.01 µg/mL
1469_M23 (PG16) (TCN-118) (antibody, V domains shown) VH: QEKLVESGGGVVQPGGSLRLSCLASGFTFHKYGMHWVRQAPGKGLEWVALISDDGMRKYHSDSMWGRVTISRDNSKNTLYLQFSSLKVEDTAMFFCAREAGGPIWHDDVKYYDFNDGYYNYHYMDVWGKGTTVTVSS VL: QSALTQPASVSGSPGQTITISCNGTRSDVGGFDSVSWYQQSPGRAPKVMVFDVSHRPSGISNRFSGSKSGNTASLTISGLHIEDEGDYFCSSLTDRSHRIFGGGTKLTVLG	< 0.01 µg/mL
1503_H05 (PG16) (TCN-119) (antibody, V domains shown) VH: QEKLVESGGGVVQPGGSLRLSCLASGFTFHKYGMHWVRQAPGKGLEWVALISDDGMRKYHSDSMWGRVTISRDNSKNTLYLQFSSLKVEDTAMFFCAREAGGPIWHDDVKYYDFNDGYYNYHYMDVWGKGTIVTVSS VL: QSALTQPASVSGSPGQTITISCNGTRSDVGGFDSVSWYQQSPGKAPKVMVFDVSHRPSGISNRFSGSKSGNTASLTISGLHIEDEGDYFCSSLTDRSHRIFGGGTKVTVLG	< 0.01 µg/mL
1489_I13 (PG16) (TCN-120) (antibody, V domains shown) VH: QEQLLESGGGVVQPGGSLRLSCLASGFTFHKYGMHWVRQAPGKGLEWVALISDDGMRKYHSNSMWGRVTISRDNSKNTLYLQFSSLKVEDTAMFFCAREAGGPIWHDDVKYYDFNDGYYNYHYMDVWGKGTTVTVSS VL: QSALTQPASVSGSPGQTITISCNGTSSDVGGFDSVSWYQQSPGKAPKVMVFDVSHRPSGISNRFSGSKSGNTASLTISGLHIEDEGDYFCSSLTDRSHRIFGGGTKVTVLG	< 0.01 µg/mL
